ASSAY_OVERVIEW: chemical genetic growth profiling, strain panel (AID 1159580);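 also: tested at 20 µM; growth read once vehicle control cultures reached saturation at 30 °C; lower values mean less growth of the strain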
EXPERIMENTAL_CONDITIONS: S. cerevisiae deletion strains, growth OD, locus YMR078C, strain ctf18
Hit rate of the full screen: of about 5,500 compounds, about 2,000 (36%) were called active. Roughly 18% stayed inconclusive and do not appear here. Rule as the data show it: active = normalized growth mostly below about 0.91 (no sharp cut-off); inconclusive = no clear call, values can overlap the other calls; inactive = mostly above about 0.92. The list shows a part of the results.
Labels: active, inactive

MOLECULE	CAT
NC(N)=Nc1ccc(Cl)cc1	inactive
CCCCCC(O)C1C(=O)OC(C)C(O)/C=C/C=C/C=C/C=C/C=C(\C)C(O)CC(O)CC(O)CC(O)CC(O)CC(O)CC1O (stereo unspecified)	inactive
CCC(=O)OCC(=O)C1(OC(=O)CC)C(C)CC2C3CCC4=CC(=O)C=CC4(C)C3(Cl)C(O)CC21C (stereo unspecified)	inactive
CC(=O)O[C@@H]1c2c(ccc3ccc(=O)oc23)OC(C)(C)[C@@H]1OC(=O)CC(C)C	inactive
COC(=O)[C@H]1[C@H]2C[C@H]3c4[nH]c5cc(OC)ccc5c4CCN3C[C@H]2C[C@@H](OC(=O)c2cc(OC)c(OC)c(OC)c2)[C@@H]1OC	inactive
COC1C(O)C(O[C@H]2CC[C@]3(C=O)C4C(CC[C@]3(O)C2)[C@@]2(O)CC[C@H](C3=CC(=O)OC3)[C@@]2(C)C[C@H]4OC(C)=O)OC(C)C1OC(C)=O (stereo partly specified)	inactive
CC1(C)S[C@@H]2[C@H](NC(=O)[C@@H](N)c3ccc(O)cc3)C(=O)N2[C@H]1C(=O)O	inactive
O=C(/C=C(\O)c1ccccc1)c1ccccc1O	inactive
CC(=O)OC1CC[C@@]2(C)C(CCC3C2CC[C@]2(C)C(C4=CC(=O)OC4)C(OC(C)=O)CC32O)C1 (stereo partly specified)	inactive
C[N+]1(C)C[C@H](O)[C@H](C(=O)[O-])C1	inactive
CC12CCC3C(CCC4(O)CC(O)CCC34/C=N/NC(N)=O)C1(O)CCC2C1=CC(=O)OC1 (stereo unspecified)	inactive
CC1=CC(=O)C(C(C)C)=CC1=O	inactive
C[C@]12CCC3C(CC[C@]4(O)C[C@@H](O)CC[C@]34C=O)[C@@]1(O)CCC2C1=CC(=O)OC1 (stereo partly specified)	inactive
CC1(C)O[C@@H]2CC3C4C[C@H](F)C5=CC(=O)CC[C@]5(C)C4[C@@H](O)C[C@]3(C)[C@]2(C(=O)CO)O1 (stereo partly specified)	inactive
CCCCC(=O)O[C@]1(C(=O)CO)[C@@H](C)CC2C3CCC4=CC(=O)C=C[C@]4(C)[C@@]3(F)C(O)C[C@@]21C (stereo partly specified)	inactive
COc1cc(C)c2c(=O)c3c(O)cc(OC)cc3oc2c1	inactive
COc1ccc(-c2cc(=O)c3c(O)c(OC)c(O[C@H]4O[C@H](CO[C@@H]5O[C@@H](C)[C@H](O)[C@@H](O)[C@H]5O)[C@@H](O)[C@H](O)[C@H]4O)cc3o2)cc1	inactive
CC1Cc2ccccc2N1NC(=O)c1ccc(Cl)c(S(N)(=O)=O)c1 (stereo unspecified)	inactive
Nc1ccc(S(=O)(=O)Nc2ncccn2)cc1	inactive
CO[C@H]1[C@H](O)[C@@H](O[C@H]2CC[C@]3(C=O)C4CC[C@]5(C)[C@@H](C6=CC(=O)OC6)CC[C@]5(O)C4CC[C@@H]3C2)O[C@@H](C)[C@@H]1O (stereo partly specified)	inactive
CNC[C@H](O)c1cccc(O)c1	inactive
COc1cccc2c1CCC1=CC(=O)CC[C@@]12C	inactive
CCn1nc(C(=O)O)c(=O)c2cc3c(cc21)OCO3	inactive
COC(=O)CC1C(C)(C)C(OC(C)=O)[C@@H]2[C@@H](OC(C)=O)[C@]34O[C@@]2(O)[C@]1(C)C3CC[C@]1(C)C4=CC(=O)O[C@H]1c1ccoc1 (stereo partly specified)	inactive
C[C@]12CC[C@H](O)C[C@H]1CCC1C2CC[C@]2(C)[C@@H](C3=CC(=O)OC3)[C@@H](O)C[C@]12O (stereo partly specified)	inactive
C[C@]12CCC(=O)C=C1CCc1ccc(O)cc12	inactive
CC1(C)Oc2ccc3ccc(=O)oc3c2CC1O (stereo unspecified)	inactive
CCOC(=O)C1=C(O)C(=O)N(Cc2ccccc2)C1	inactive
CC1(C)S[C@@H]2[C@H](NC(=O)C(C(=O)O)c3ccccc3)C(=O)N2[C@H]1C(=O)O (stereo partly specified)	inactive
CN(C)CC[C@H](c1ccc(Cl)cc1)c1ccccn1	inactive
CCC(=O)O[C@]1(C(=O)CCl)[C@@H](C)CC2C3CCC4=CC(=O)C=C[C@]4(C)[C@@]3(F)[C@@H](O)C[C@@]21C (stereo partly specified)	inactive
CO[C@@H]1[C@@H](OC(N)=O)[C@@H](O)[C@H](Oc2ccc3c(O)c(NC(=O)c4ccc(O)c(CC=C(C)C)c4)c(=O)oc3c2C)OC1(C)C	inactive
COC1=CC(C)[C@@H]2C[C@H]3OC(=O)C[C@H]4C(C)=C(OC)C(=O)C([C@@]34C)[C@@]2(C)C1=O (stereo partly specified)	inactive
CCOC(=O)CC(SP(=S)(OC)OC)C(=O)OCC (stereo unspecified)	inactive
COc1c(O)cc2c(c1O)[C@H]1O[C@H](CO)[C@@H](O)[C@H](O)[C@@H]1OC2=O	inactive
Cc1cc(N)c2ccccc2[n+]1CCCCCCCCCC[n+]1c(C)cc(N)c2ccccc21	active
